Origin of the recorded values: ChEMBL document CHEMBL6078714

Reported values of remaining at 48 h for individual entries
PROCEDURE_TEXT: Stability of compound in 0.1M HCl solution at pH 1.0 assessed as parent compound remaining measured after 48 hrs by 1H NMR analysis
Format: physicochemical
STUDY_CONDITIONS: read-out: Stability
Just the number please, in %, no unit attached.

Task: Please give measured remaining at 48 h of the following entry: "COc1ccc2c(c1OC)C(=O)O[C@@H]2[C@H]1c2c(cc3c(c2OC)OCO3)CCN1C(F)(F)F"
Result: 73

Turning now to a further record.
Task: Report remaining at 48 h, nothing else, for this compound: "COc1ccc2c(c1OC)C(=O)O[C@@H]2[C@H]1c2c(c(Br)c3c(c2OC)OCO3)CCN1C(F)(F)F"
Result: 86
